- target-or-system: Synaptic vesicular amine transporter (Rattus norvegicus) (UniProt Q01827)
- Sequence (Q01827 whole entry): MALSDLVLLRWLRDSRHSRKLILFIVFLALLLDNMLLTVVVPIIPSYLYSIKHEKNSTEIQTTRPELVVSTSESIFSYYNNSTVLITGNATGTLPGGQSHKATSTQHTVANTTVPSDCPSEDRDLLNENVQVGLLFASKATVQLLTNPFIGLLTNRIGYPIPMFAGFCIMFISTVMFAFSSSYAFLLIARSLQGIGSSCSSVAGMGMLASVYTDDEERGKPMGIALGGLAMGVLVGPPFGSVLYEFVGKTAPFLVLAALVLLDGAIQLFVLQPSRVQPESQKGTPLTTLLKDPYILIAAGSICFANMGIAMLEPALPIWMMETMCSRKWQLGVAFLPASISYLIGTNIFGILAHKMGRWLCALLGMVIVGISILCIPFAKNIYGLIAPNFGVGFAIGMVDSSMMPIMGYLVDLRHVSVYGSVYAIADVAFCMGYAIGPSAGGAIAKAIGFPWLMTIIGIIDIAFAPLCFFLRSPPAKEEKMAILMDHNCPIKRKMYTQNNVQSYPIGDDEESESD
- assay-overview: Ratio of Ki for displacement of [3H]DTBZ from VMAT2 dihydrotetrabenazine binding site in rat brain synaptic vesicle to Ki for inhibition of [3H]dopamine uptake at VMAT2 in rat brain synaptic vesicle
- Type: tissue-based
reported-metric: Ratio Ki
Answers are plain numbers.

Take a look at these entries with their results.
[
  {
    "compound-string": "CN1[C@@H](CCc2ccccc2)CC[C@@H]1CCc1ccccc1",
    "Ratio Ki": 85
  },
  {
    "compound-string": "CN1[C@@H](Cc2ccccc2)CC[C@H]1Cc1ccccc1",
    "Ratio Ki": 130
  },
  {
    "compound-string": "OC[C@H](c1ccccc1)N1[C@H](CCc2ccccc2)CC[C@@H]1CCc1ccccc1",
    "Ratio Ki": 3.36
  },
  {
    "compound-string": "c1ccc(C[C@H]2CC[C@@H](Cc3ccccc3)N2)cc1",
    "Ratio Ki": 176
  },
  {
    "compound-string": "c1ccc(CC[C@H]2CC[C@H](CCc3ccccc3)N2)cc1",
    "Ratio Ki": 38
  }
]

Quick batch: Ratio Ki for everything below.
1. c1ccc(CC[C@@H]2CC[C@@H](CCc3ccccc3)N2)cc1
2. CN1[C@H](CCCc2ccccc2)CC[C@@H]1CCCc1ccccc1
3. c1ccc(CCC[C@@H]2CC[C@H](CCCc3ccccc3)N2)cc1
4. CN1[C@H](CCc2ccccc2)CC[C@@H]1CCc1ccccc1
5. OC[C@H](c1ccccc1)N1[C@H](CCc2ccccc2)CC[C@H]1CCc1ccccc1
6. c1ccc(CC[C@H]2CCC[C@@H](CCc3ccccc3)N2)cc1

63
23.2
19.3
32.6
2.6
100
